meta.source: the supplement of paper PMC8728848

# Tested system: Neu5Ac(a2-8)Neu5Ac(a2-8)Neu5Ac(a2-3)Gal(b1-4)Glc
# Assay remarks: glycan array binding signal (z-score within array); higher = stronger binding
# Condition set: glycan notation: IUPAC condensed, linker removed
The entries come from a sample that favours the strongest signals as a whole.
Outcome measure: glycan array binding signal (z-score)

Reference set (4 entries):
Binder	glycan array binding signal (z-score)
PEB3 Cj0289c (Campylobacter jejuni), Q9PIK7 (protein) MDVNLYGPGGPHTALKDIANKYSEKTGVKVNVNFGPQATWFEKAKKDADILFGASDQSALAIASDFGKDFNVSKIKPLYFREAIILTQKGNPLKIKGLKDLANKKVRIVVPEGAGKSNTSGTGVWEDMIGRTQDIKTIQNFRNNIVAFVPNSGSARKLFAQDQADAWITWIDWSKSNPDIGTAVAIEKDLVVYRTFNVIAKEGASKETQDFIAYLSSKEAKEIFKKYGWRE	-0.456
Epa3to1 (Candida glabrata) (protein) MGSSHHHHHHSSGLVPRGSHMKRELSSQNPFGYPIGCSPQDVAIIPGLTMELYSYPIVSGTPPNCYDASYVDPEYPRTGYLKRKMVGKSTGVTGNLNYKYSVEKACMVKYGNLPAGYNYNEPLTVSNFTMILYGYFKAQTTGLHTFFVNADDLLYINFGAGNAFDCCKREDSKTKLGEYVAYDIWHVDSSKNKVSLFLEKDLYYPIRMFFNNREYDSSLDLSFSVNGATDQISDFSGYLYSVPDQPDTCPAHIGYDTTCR	0.154
GH95CBM (Clostridium perfringens) (protein) EKVAVETSVYLSELEWKSASTGYGEIQKDASCDGNTITLKGENGEKVSYDKGIGTHAHSEIVYSLEGLDYYDYFETFVGVDQEMAGTVASISFEVYLDNEKVFDSGLMTGDTTQKHVKVPIAGKNTLKLVVKDGGDSIGSDHGSFGDAKLT	-0.343
3FTT (Staphylococcus aureus), Q5HCZ5 (protein) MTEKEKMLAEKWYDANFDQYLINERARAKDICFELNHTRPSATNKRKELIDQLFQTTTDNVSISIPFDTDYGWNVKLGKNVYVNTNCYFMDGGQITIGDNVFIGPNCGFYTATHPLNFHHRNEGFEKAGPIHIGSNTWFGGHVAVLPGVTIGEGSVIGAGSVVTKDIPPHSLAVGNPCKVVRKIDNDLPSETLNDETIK	0.056

Now take the following binder into account.
QUERY: Report measured glycan array binding signal (z-score); entry is PGP3 (Chlamydia trachomatis), P0CE18 (protein) MGNSGFYLYNTQNCVFADNIKVGQMTEPLKDQQIILGTTSTPVAAKMTASDGISLTVSNNPSTNASITIGLDAEKAYQLILEKLGDQILGGIADTIVDSTVQDILDKITTDPSLGLLKAFNNFPITNKIQCNGLFTPRNIETLLGGTEIGKFTVTPKSSGSMFLVSADIIASRMEGGVVLALVREGDSKPYAISYGYSSGVPNLCSLRTRIINTGLTPTTYSLRVGGLESGVVWVNALSNGNDILGITNTSNVSFLEVIPQTNA
RESULT: 2.79
